System: PC-3
assay: NCI tumour cell line growth inhibition, 48 h
Active and inactive are the calls of the source. Cut-off read from the data, not from the text of the source: active = GI50 up to about 1.1 µM and inactive = higher. Starred links: 1 amine or outer side, 2 acyl side, 3 side chain; linkers in the order of their positions; H or OH if unused. Residues, ends and D or L forms follow the SMILES beside them. *: point of attachment. γGlu = O=C(O)[CH](CCC(=O)[*:2])N[*:1]; NHOH = ON*
readout.label: GI50

{"molecule": "COCn1c(=O)n(C)c(=O)c2c1nc1c(c(=O)n(C)c(=O)n1COC)[n+]2[O-]", "readout.label": "GI50", "assay.value": "5.07 µM (inactive)"}
{"molecule": "COc1cc2nc(-c3ccc4ccccc4c3)nc(O)c2cc1OC", "readout.label": "GI50", "assay.value": "> 100 µM (inactive)"}
{"molecule": "CC(=O)[C@@]1(O)CC[C@H]2[C@@H]3C[C@H](C)C4=CC(=O)CC[C@]4(C)[C@H]3[C@@H](O)C[C@@]21C", "readout.label": "GI50", "assay.value": "> 100 µM (inactive)"}
{"molecule": "CCOC(=O)CNC(=O)C(CCC(=O)NO)NC(=O)CCC(N)C(=O)O (centres undefined) (γGlu-Glu(NHOH)-Gly-OEt; configuration not given here)", "readout.label": "GI50", "assay.value": "> 100 µM (inactive)"}

====

System: OVCAR-4
assay: NCI tumour cell line growth inhibition, 48 h
Where a name gives a salt, the structure may show the parent alone. The source made the active and inactive calls. No stated cut-off is given here; in the data, active = GI50 up to about 1.1 µM and inactive = higher.
compounds and their reported GI50

{"compound": "Cn1c2cc([N+](=O)[O-])ccc2c(=O)c2c(O)cc3c(c21)C=CC(C)(C)O3", "GI50": "> 100 µM (inactive)"}
{"compound": "CCOC(=O)C12CCSC1C1(C#N)C(C#N)=CC2(N=P(c2ccccc2)(c2ccccc2)c2ccccc2)n2c(=O)n(-c3ccccc3)c(=O)n21 (stereo not given)", "GI50": "21.9 µM (inactive)"}
{"compound": "CN(C)CCCN1c2ccccc2Sc2ccc(C(F)(F)F)cc21 [TRIFLUPROMAZINE HYDROCHLORIDE]", "GI50": "14.8 µM (inactive)"}
{"compound": "CN(c1cn(C2CC[C@@H](CO)O2)c(=O)[nH]c1=O)C1CCCCC1 (stereo not given in full)", "GI50": "> 100 µM (inactive)"}
{"compound": "CNC(=O)C(C)Oc1ccc(OCC2CCCCC2)cc1 (stereo not given)", "GI50": "> 100 µM (inactive)"}

====

Test system: T47D
assay: NCI tumour cell line growth inhibition, 48 h
Active and inactive are the calls of the source. Cut-off read from the data, not from the text of the source: active = GI50 up to about 1.1 µM and inactive = higher.

{"compound": "c1cnc2c(c1)Nc1cnncc1S2", "target.or.test.system": "T47D", "GI50": "> 100 µM (inactive)"}
{"compound": "O=C(O)c1ccc2c(O)c(O)ccc2c1", "target.or.test.system": "T47D", "GI50": "45.4 µM (inactive)"}
{"compound": "COc1cc2nc(-c3ccc4ccccc4c3)nc(O)c2cc1OC", "target.or.test.system": "T47D", "GI50": "> 100 µM (inactive)"}
{"compound": "CC(C)c1ccc(C(O)(C(=O)O)c2ccc(C(C)C)cc2)cc1", "target.or.test.system": "T47D", "GI50": "43.2 µM (inactive)"}
{"compound": "COc1ccc(C(=O)/C=C2\\c3ccccc3C(=O)N2C)cc1", "target.or.test.system": "T47D", "GI50": "27 µM (inactive)"}
{"compound": "CC(=O)Nc1oc(C)c(C)c1S(=O)(=O)c1ccc(Cl)cc1", "target.or.test.system": "T47D", "GI50": "52.7 µM (inactive)"}
{"compound": "CC12c3c4cccc3Oc3cc(N)cc(c31)Oc1cc(N)cc(c12)O4", "target.or.test.system": "T47D", "GI50": "9.98 µM (inactive)"}
{"compound": "CCOC(=O)c1csc(NC(=O)CCN2CCCC2)n1", "target.or.test.system": "T47D", "GI50": "> 100 µM (inactive)"}
{"compound": "CCc1nc(N)nc(N)c1-c1ccc2c(c1)nnn2CCc1ccccc1", "target.or.test.system": "T47D", "GI50": "23.4 µM (inactive)"}
{"compound": "CN(c1cn(C2CC[C@@H](CO)O2)c(=O)[nH]c1=O)C1CCCCC1 (some centres not stated)", "target.or.test.system": "T47D", "GI50": "> 100 µM (inactive)"}
{"compound": "CCOC(=O)C(Cc1ccc(OC(=O)c2ccc(OC)cc2OC)cc1)NC(=O)C(F)(F)F (configuration not stated)", "target.or.test.system": "T47D", "GI50": "23.8 µM (inactive)"}
{"compound": "CNc1nc(N(C)C)nc(N(C)C)n1", "target.or.test.system": "T47D", "GI50": "578 µM (inactive)"}
{"compound": "O=C1OCC2OC(=O)c3cc(O)c(O)c(O)c3-c3c(O)c(O)c(O)c4c3C(=O)OC(C2OC(=O)c2cc(O)c(O)c(O)c2-c2c1cc(O)c(O)c2O)C1OC(=O)C2C4=C(O)C(=O)C23Oc2cc(O)c4c(c2[C@H]13)O[C@H](c1ccc(O)c(O)c1)[C@@H](O)C4 (some centres not stated)", "target.or.test.system": "T47D", "GI50": "20.7 µM (inactive)"}
{"compound": "COP(=O)(/C=C/c1cc(C(=O)OCc2ccccc2)n(S(=O)(=O)c2ccccc2)c1)OC", "target.or.test.system": "T47D", "GI50": "> 100 µM (inactive)"}
{"compound": "COCn1c(=O)n(C)c(=O)c2c1nc1c(c(=O)n(C)c(=O)n1COC)[n+]2[O-]", "target.or.test.system": "T47D", "GI50": "3.13 µM (inactive)"}
{"compound": "O=C1CC2(CCC(O)(c3cccs3)C(C(=O)c3cccs3)C2)C(=O)c2ccccc2N1 (configuration not stated)", "target.or.test.system": "T47D", "GI50": "18.2 µM (inactive)"}
{"compound": "Cc1ncc([N+](=O)[O-])n1CCNS(=O)(=O)CCCn1ccnc1[N+](=O)[O-]", "target.or.test.system": "T47D", "GI50": "> 100 µM (inactive)"}
{"compound": "COc1ccc(OC)c2sc(N3C(=O)/C(=C/c4cccc(Oc5ccccc5)c4)N=C3c3ccccc3)nc12", "target.or.test.system": "T47D", "GI50": "47 µM (inactive)"}
{"compound": "Cc1nc(N)c(N2CCN(CN)CC2)c(O)n1", "target.or.test.system": "T47D", "GI50": "> 100 µM (inactive)"}
{"compound": "COc1ccc2nc3cc(Cl)ccc3c(Nc3ccccc3-c3ccccc3Nc3c4ccc(Cl)cc4nc4ccc(OC)cc34)c2c1", "target.or.test.system": "T47D", "GI50": "13.1 µM (inactive)"}
{"compound": "O=C1C=CC(=O)c2c(NCC3CC3)ccc(NCC3CC3)c21", "target.or.test.system": "T47D", "GI50": "6.34 µM (inactive)"}
{"compound": "COc1ccc(CN2C(=O)C(=O)N(C)C2=O)c2ccccc12", "target.or.test.system": "T47D", "GI50": "> 10 µM (inactive)"}
{"compound": "COC(=O)[C@@H]1C[C@H]2[C@H](c3ccccc3Br)[C@@H](OC(C)=O)[C@@H](OCc3ccccc3)ON2O1", "target.or.test.system": "T47D", "GI50": "> 100 µM (inactive)"}
{"compound": "COc1ccc(C[C@H]2COC(=O)[C@@H]2Cc2ccccc2)cc1OC", "target.or.test.system": "T47D", "GI50": "> 100 µM (inactive)"}
{"compound": "COC(=O)CCCc1c(-c2[nH]c3ccccc3c2CCCC(=O)OC)[nH]c2ccccc12", "target.or.test.system": "T47D", "GI50": "> 100 µM (inactive)"}
{"compound": "CCN(/C=C1/C(=O)C(c2ccccc2)N(c2ccccc2)C1=O)CC (configuration not stated)", "target.or.test.system": "T47D", "GI50": "> 10 µM (inactive)"}
{"compound": "CC(=O)O/C(=C1\\C[C@H]2[C@@H]3CC=C4C[C@@H](OC(C)=O)CC[C@]4(C)[C@H]3CC[C@]2(C)C1=O)C(F)(F)F", "target.or.test.system": "T47D", "GI50": "7.4 µM (inactive)"}
